test: in vitro; conditions: human
# strict inequality: CC50 < 1 µM yields y, everything else yields n

Example cases with answers are listed next.
Cc1nc(C#N)c(N)n1C(Cc1ccc(O)cc1)C(=O)O (stereo not shown) [Compound 5f] ... y
Cc1nc(C#N)c(N)n1C(Cc1ccccc1)C(=O)O (stereo not shown) [Compound 5e] ... n
Cc1nc2c(=O)[nH]cnc2n1C(CO)C(=O)O (stereo not shown) [Compound 7d] ... n
COC(=O)Cn1c(C)nc2c(=O)[nH]cnc21 [Compound 6a] ... n
Cc1nc2c(=O)[nH]cnc2n1C(Cc1ccccc1)C(=O)O (stereo not shown) [Compound 7e] ... n

Input Cc1nc(C#N)c(N)n1CC(=O)O [Compound 5a] ; condition: CC50 strictly below 1 µM. Does it hold?
n

Input COC(=O)C(CO)n1c(C)nc2c(=O)[nH]cnc21 (stereo not shown) [Compound 6d] ; condition: CC50 strictly below 1 µM. Does it hold?
y

Input Cc1nc2c(=O)[nH]cnc2n1C(C)C(=O)O (stereo not shown) [Compound 7b] ; condition: CC50 strictly below 1 µM. Does it hold?
n

Input COC(=O)C(C)n1c(C)nc(C#N)c1N (stereo not shown) [Compound 4b] ; condition: CC50 strictly below 1 µM. Does it hold?
n

Input Cc1nc2c(=O)[nH]cnc2n1C(C(=O)O)C(C)C (stereo not shown) [Compound 7c] ; condition: CC50 strictly below 1 µM. Does it hold?
n

Input COC(=O)C(C(C)C)n1c(C)nc(C#N)c1N (stereo not shown) [Compound 4c] ; condition: CC50 strictly below 1 µM. Does it hold?
n

Input Cc1nc(C#N)c(N)n1C(C)C(=O)O (stereo not shown) [Compound 5b] ; condition: CC50 strictly below 1 µM. Does it hold?
n

Input COC(=O)C(Cc1ccccc1)n1c(C)nc2c(=O)[nH]cnc21 (stereo not shown) [Compound 6e] ; condition: CC50 strictly below 1 µM. Does it hold?
y

---

test system: influenza A/Puerto Rico/8/34 H1N1 (PR8) virus; assay: microbe, parasite or virus in culture; assay type: cell-based; conditions: Influenza A virus, H1N1|PR8, A549, 24 h
# strict inequality: IC50 < 2000 nM yields class 1, everything else yields class 0

COC(=O)C(Cc1ccc(O)cc1)n1c(C)nc(C#N)c1N (stereo not shown) ... class 0

Input Cc1nc(C#N)c(N)n1C(Cc1ccccc1)C(=O)O (stereo not shown) ; condition: IC50 strictly below 2000 nM. Does it hold?
class 1

Input Cc1nc(C#N)c(N)n1CC(=O)O ; condition: IC50 strictly below 2000 nM. Does it hold?
class 1

Input COC(=O)C(Cc1ccccc1)n1c(C)nc2c(=O)[nH]cnc21 (stereo not shown) ; condition: IC50 strictly below 2000 nM. Does it hold?
class 1

Input Cc1nc2c(=O)[nH]cnc2n1CC(=O)O ; condition: IC50 strictly below 2000 nM. Does it hold?
class 1

---

test system: influenza A/Puerto Rico/8/34 H1N1 (PR8) virus; test: microbe, parasite or virus in culture; format: cell-based; settings: Influenza A virus, H1N1|PR8, A549, 24 h
Documented log10 of IC50 across a set of compounds
Log scale reminder: IC50 in nM, then log10 taken.

For COC(=O)C(Cc1ccccc1)n1c(C)nc(C#N)c1N (stereo not shown) [Compound 4e] the compound record lists log10 of IC50 as 2.59

For COC(=O)C(C)n1c(C)nc(C#N)c1N (stereo not shown) [Compound 4b] the compound record lists log10 of IC50 as 2.88

For COC(=O)C(C(C)C)n1c(C)nc(C#N)c1N (stereo not shown) [Compound 4c] the compound record lists log10 of IC50 as 3.38

For COC(=O)C(CO)n1c(C)nc(C#N)c1N (stereo not shown) [Compound 4d] the compound record lists log10 of IC50 as 2.83

For Cc1nc(C#N)c(N)n1C(C)C(=O)O (stereo not shown) [Compound 5b] the compound record lists log10 of IC50 as 3.48

For Cc1nc(C#N)c(N)n1C(C(=O)O)C(C)C (stereo not shown) [Compound 5c] the compound record lists log10 of IC50 as 2.92

For COC(=O)C(C(C)C)n1c(C)nc2c(=O)[nH]cnc21 (stereo not shown) [Compound 6c] the compound record lists log10 of IC50 as 2.26
